# pEC50 annotations
tested system: ABCC6 WT (Homo sapiens, UniProt O95255)
Sequence (O95255 whole entry): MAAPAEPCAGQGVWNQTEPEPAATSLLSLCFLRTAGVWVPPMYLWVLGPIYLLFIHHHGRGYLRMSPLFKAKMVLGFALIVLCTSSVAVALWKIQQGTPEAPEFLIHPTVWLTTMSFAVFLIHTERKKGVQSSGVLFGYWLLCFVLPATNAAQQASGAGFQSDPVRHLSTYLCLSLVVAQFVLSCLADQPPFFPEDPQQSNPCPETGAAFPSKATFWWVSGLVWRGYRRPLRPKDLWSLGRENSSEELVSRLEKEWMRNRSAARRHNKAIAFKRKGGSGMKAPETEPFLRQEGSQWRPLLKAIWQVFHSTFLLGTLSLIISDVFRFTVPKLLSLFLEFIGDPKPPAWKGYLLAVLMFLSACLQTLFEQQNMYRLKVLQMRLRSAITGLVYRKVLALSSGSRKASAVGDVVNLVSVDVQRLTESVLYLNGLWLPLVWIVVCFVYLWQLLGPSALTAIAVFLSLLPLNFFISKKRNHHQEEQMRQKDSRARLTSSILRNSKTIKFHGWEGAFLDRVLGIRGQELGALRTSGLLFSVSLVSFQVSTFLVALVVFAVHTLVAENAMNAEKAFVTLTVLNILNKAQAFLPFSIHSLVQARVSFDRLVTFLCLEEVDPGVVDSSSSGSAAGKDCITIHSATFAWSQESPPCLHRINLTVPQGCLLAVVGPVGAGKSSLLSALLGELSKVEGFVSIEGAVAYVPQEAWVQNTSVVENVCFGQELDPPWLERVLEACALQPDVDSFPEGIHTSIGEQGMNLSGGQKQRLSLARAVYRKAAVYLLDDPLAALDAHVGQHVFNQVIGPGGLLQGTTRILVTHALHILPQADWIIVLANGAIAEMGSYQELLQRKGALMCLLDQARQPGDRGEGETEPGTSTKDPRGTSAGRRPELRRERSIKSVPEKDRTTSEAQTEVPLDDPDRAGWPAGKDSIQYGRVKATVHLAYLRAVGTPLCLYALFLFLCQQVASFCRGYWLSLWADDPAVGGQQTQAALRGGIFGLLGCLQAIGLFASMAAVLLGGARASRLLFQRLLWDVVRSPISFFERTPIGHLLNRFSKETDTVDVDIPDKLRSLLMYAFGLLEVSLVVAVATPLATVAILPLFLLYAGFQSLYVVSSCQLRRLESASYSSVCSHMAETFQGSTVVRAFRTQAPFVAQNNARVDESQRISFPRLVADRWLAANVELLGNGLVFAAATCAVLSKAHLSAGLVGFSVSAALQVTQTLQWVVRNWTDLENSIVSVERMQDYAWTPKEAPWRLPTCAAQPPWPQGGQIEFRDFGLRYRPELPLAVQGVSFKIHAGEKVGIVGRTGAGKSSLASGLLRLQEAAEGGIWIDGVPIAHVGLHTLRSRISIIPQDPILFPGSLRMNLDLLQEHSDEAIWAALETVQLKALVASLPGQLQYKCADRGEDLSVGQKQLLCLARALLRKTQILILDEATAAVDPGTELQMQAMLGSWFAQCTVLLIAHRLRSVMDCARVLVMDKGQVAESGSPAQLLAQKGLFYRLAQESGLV
experiment summary: ABCC6 WT assay: HiBit protein expression
recorded conditions: HEK-293 cells transiently expressing HiBit-tagged ABCC6 WT; 24 h treatment; top concentration 20 μM; read-out: ABCC6 WT EC50, Emax
Protocol: To assess activity against ABCC6, compounds were screened in an assay measuring protein expression, using cells transfected with cDNA encoding HiBit-tagged ABCC6 wild-type. […] Dose response curves include ten doses with the top final concentration at 20 μM in 0.15% DMSO. […] The plates are rotated at room temperature for 10 minutes and luminescent signal is acquired using an EnVision Multimode Plate Reader (PerkinElmer). […]
pEC50: −log10 of the molar value.

State, in one line, measured pEC50 of Cc1cc(C(F)(F)F)nc(C2CC2)c1Oc1nc(-c2cncc(C#N)c2)ccc1S(=N)(=O)C1CCOCC1 (stereo not shown) [Compound I-301] 5.00 to 6.00

State, in one line, measured pEC50 of CC(=O)NC1CN(c2ccc(NS(=O)(=O)c3cccnc3)c(Oc3c(C)cc(C)cc3C3CC3)n2)C1 [Compound I-50] > 4.60

State, in one line, measured pEC50 of Cc1nc(C2COC2)nc(C2CC2)c1Oc1nc(-c2cncc(C#N)c2)ccc1NS(C)(=O)=O [Compound I-143] > 6.00

Field: next molecule
State, in one line, measured pEC50 of Cc1cc(C)c(Oc2nc(-c3cncc(N4CC(F)C4)c3)ccc2NS(C)(=O)=O)c(C)n1 [Compound I-185] > 6.00

Values were extracted from patent US20250228835A1.
